Tested on: HL-60 cells
TEST PROTOCOL: Differentiation of HL-60 cells by nitroblue tetrazolium (NBT) reduction
Type: cell-based, human (patient)
MEASUREMENT CONDITIONS: Homo sapiens, 96 h; HL-60 cells, NBT test; read-out: HL-60 Test Differentiation NBT Test ED50
MEASURED PARAMETER: pEC50
// field semantics: pEC50 = negative decimal log of concentration (mol/L)

| MOLECULE | pEC50 |
| --- | --- |
| C=C(C)[C@H](O)CC[C@@H](C)[C@H]1CC[C@H]2/C(=C/C=C3/C[C@@H](O)C[C@H](O)C3=C)CCC[C@]12C | 7.52 |

Now for the molecule whose pEC50 we want.
Enquiry: Which pEC50 is reported for this molecule? C=C1/C(=C\C=C2/CCC[C@]3(C)[C@@H]([C@H](C)CCCC(C)(C)O)CC[C@@H]23)C[C@@H](O)C[C@@H]1O [1α,25-Dihydroxycholecalciferol, reference compound]
Return: 7.92

These entries and their values trace back to patent US4594340A.
